Item-by-item account of EC50
System: SH-SY5Y M-currents (KCNQ2, KCNQ3 and KCNQ5)
Measurement protocol: SH-SY5Y native cell line FLIPR assay (voltage-sensitive dye DiBAC)
Format: cell-based, mouse neuroblastoma, rat glioma hybrid cell line
Study conditions: FLIPR assay, SH-SY5Y native cell line; Table 2; read-out: SH-SY5Y EC50
Experimental: […] Differentiated SH-SY5Y cells were loaded with voltage-sensitive dye by incubation in Earls Balanced Salt Solution (EBSS) containing 5 mM DiBAC for 1 h. […] Changes in fluorescence were measured every 30 s for 25 min. The maximum change in fluorescence was measured and expressed as a percentage of the maximum response obtained in the presence of a positive control agent.
Measure: EC50

> print(dat)
                               smiles.input                     target.or.test.system  measure          result
1  Cc1ccc(-c2c(NC(=O)CC(C)(C)C)nc3ccc(F)cn23)cc1Cl  SH-SY5Y M-currents (KCNQ2, KCNQ3 and KCNQ5)     EC50        < 500 nM
2  CC(C)(C)CC(=O)Nc1nc2ccc(F)cn2c1-c1ccc(F)c(C(F)F)c1  SH-SY5Y M-currents (KCNQ2, KCNQ3 and KCNQ5)     EC50        < 500 nM
3  O=C(CCC1CC1)Nc1nc2ccc(F)cn2c1-c1ccc(OC(F)(F)F)cc1  SH-SY5Y M-currents (KCNQ2, KCNQ3 and KCNQ5)     EC50  500 to 3000 nM
4  O=C(CC1CCCC1)Nc1nc2cc(C(F)(F)F)ccn2c1-c1ccc(F)cc1F  SH-SY5Y M-currents (KCNQ2, KCNQ3 and KCNQ5)     EC50  500 to 3000 nM
5  CC(C)(C)CC(=O)Nc1nc2ccc(F)cn2c1-c1ccc(C(F)(F)F)c(F)c1  SH-SY5Y M-currents (KCNQ2, KCNQ3 and KCNQ5)     EC50        < 500 nM
6  CC(C)(C)CC(=O)Nc1nc2ncc(F)cn2c1-c1cccc(OC(F)(F)F)c1  SH-SY5Y M-currents (KCNQ2, KCNQ3 and KCNQ5)     EC50  500 to 3000 nM
7  CC(C)(C)CC(=O)Nc1nc2cc(Cl)c(Cl)cn2c1-c1ccc(C(F)(F)F)cc1  SH-SY5Y M-currents (KCNQ2, KCNQ3 and KCNQ5)     EC50        < 500 nM
8  O=C(CC1CCCC1)Nc1nc2ccccn2c1-c1ccc(C(F)(F)F)cc1  SH-SY5Y M-currents (KCNQ2, KCNQ3 and KCNQ5)     EC50        < 500 nM
